- Test system: endogenous SREBPs
- protocol summary: Luciferase reporter assay (pSRE-Luc, normalized by β-gal) in HEK293 cells
- Format: cell-based, human
- Design: dose or concentration left out as unconfirmed
- condition details: entries 1, 35-39 (FIG. 17); None = 18
- Experimental: On day 0, HEK293 cells were plated out in triplicate at a density of 5×10^3/well onto a 96-well plate in a Dulbecco's modified Eagle's medium with 10% fetal bovine serum, 100 units/mL penicillin, and 100 μg/mL streptomycin sulfate. […] For luciferase assay, photon production was detected as counts per second in a Wallac 1420 ARVOsx multilabel counter (PerkinElmer). […]
Mark yes (1) for reported Luc/Gal of 10 or greater; mark no (0) for anything smaller.

CCCc1cc(-c2nc(-c3ccc(C)cc3)c(C(=O)OC)s2)ccn1 : yes (1)
CCCc1cc(-c2ccc(-c3ccc(C)cc3)cc2)ccn1 : yes (1)
CCCc1cc(-c2nc(-c3ccc(C)cc3)c(C(=O)O)s2)ccn1 : yes (1)
CCCc1cc(-c2nc(-c3ccc(C)cc3)cs2)ccn1 : no (0)
CCCc1cc(-c2nc(-c3ccccc3)c(C(=O)O)s2)ccn1 : yes (1)

====

- Tested on: endogenous SREBPs
- protocol summary: Luciferase reporter assay (pSRE-Luc, normalized by β-gal) in HEK293 cells
- Type: cell-based, human
- Parameters: dose or concentration left out as unconfirmed
- condition details: entries 1, 19-34 (FIG. 16); None = 15.0759
Recorded Luc/Gal values for a group of molecules are listed next.
measurement label: Luc/Gal

CCCc1cc(-c2nc(-c3ccccc3OC)cs2)ccn1 : 8.3046
CCCc1cc(-c2nc(-c3ccc(NS(C)(=O)=O)cc3)cs2)ccn1 : 4.1981
Clc1ccc(-c2csc(-c3ccccc3)n2)cc1 : 17.8175
CCCc1cc(-c2nc(-c3ccc(NCc4ccccc4)cc3)cs2)ccn1 : 5.6748
CCc1cc(-c2nc(-c3ccc(Cl)cc3)cs2)ccn1 : 9.5798
